Recorded TGI for the following molecules
# System: HCT-15 colon
# experiment: NCI tumour cell line growth inhibition, 48 h

{"columns": ["molecule", "TGI"],
 "data": [
  ["CCCCCCCCCCCCCCCCP(=O)(O)OP(=O)(O)OCC1OC(n2ccc(N)nc2=O)C(O)C1O (stereo unspecified)", "> 100 µM"],
  ["CCN(CC)CCOc1ccc(/C=C2\\C[C@H]3[C@@H]4CC=C5C[C@@H](OC(C)=O)CC[C@]5(C)[C@H]4CC[C@]3(C)[C@H]2OC(C)=O)cc1OC", "> 50 µM"],
  ["CCN(CC)CCC(=O)Nc1ccc(Cn2nnc3c2C(=O)c2nnn(Cc4ccc(NC(=O)CCN(CC)CC)cc4)c2C3=O)cc1", "> 100 µM"],
  ["O=C(Cn1c2ccc(Br)cc2c2nc3ccccc3nc21)NC1CCCCC1", "> 100 µM"],
  ["Cc1ncc([N+](=O)[O-])n1CCN=[N+]=[N-]", "> 100 µM"],
  ["CCOC(=O)/C=C1\\Nc2ccccc2C12CCc1c([nH]c3ccccc13)C2C(=O)OCC (stereo unspecified)", "> 100 µM"]
]}

Looking for the measured TGI of COC(=O)[C@H](Cc1ccccc1)NC(=O)c1csc([C@@H](C[C@H](C(C)C)N(C)C(=O)[C@@H](NC(=O)[C@H]2CCCCN2C)C2CC2)OC(C)=O)n1 , can you help?
> 25 µM

Ok, now Oc1cccc(-c2nc3ccccc3s2)c1
> 100 µM

----------
# Test system: RXF 393 renal
# experiment: NCI tumour cell line growth inhibition, 48 h
Recorded TGI for the following compounds
Reply numerically in µM, unit not repeated.

{"columns": ["query smiles", "measured property", "number"],
 "data": [
  ["COc1ccc2cccc(C(=N)c3ccc(C)c4c3CCC4)c2c1", "TGI", 26.3],
  ["Cc1ccc2c(c1)c(=O)c1c(NCCN(C)C)ccc3nnn2c31", "TGI", 16.9],
  ["O=C1c2cccnc2C(=O)c2c1c(C(=O)OCCCN1CCOCC1)c1ccccn21", "TGI", 0.0235],
  ["O=C1C=CC(=O)c2c(O)c(N3CCSCC3)c(Cl)c(O)c21", "TGI", 0.781]
]}

Looking for the measured TGI of COc1ccc([Se]c2ccc(OC)cc2OC)c(OC)c1 , can you help?
59.5

----------
# Test system: MOLT-4 leukemia
# experiment: NCI tumour cell line growth inhibition, 48 h; in the data active means GI50 below about 0.43 µM; inactive means the rest
Give one outcome, nothing more. List: TRUE (active), FALSE (inactive)

# count of solved cases: 5
{"columns": ["compound", "assigned label"],
 "data": [
  ["Cc1nn(-c2ccccc2)c2c1C1C(=C(c3ccc(Cl)cc3)N2)C(=O)Nc2ccccc21 (centres undefined)", "FALSE"],
  ["O=C1C=C(Nc2cccc(Br)c2)c2ccccc2C1=O", "FALSE"],
  ["Cc1nnc([S-])s1.[Au+].c1ccc([PH+](c2ccccc2)c2ccccc2)cc1", "FALSE"],
  ["CCOC(=O)c1[nH]c2c(c1C)-c1[nH]c(=O)c(S(=O)(=O)c3ccccc3)cc1SC2", "FALSE"],
  ["CCN(CC)CCOc1ccc(/C=C2\\C[C@H]3[C@@H]4CC=C5C[C@@H](OC(C)=O)CC[C@]5(C)[C@H]4CC[C@]3(C)[C@H]2OC(C)=O)cc1OC", "FALSE"]
]}

What was the test verdict on O=C1c2cccnc2C(=O)c2c1c(C(=O)OCCCN1CCOCC1)c1ccccn21 ?
TRUE

Ok, now COc1ccccc1C(=O)c1cnc(NC2CCN(S(C)(=O)=O)CC2)nc1N
FALSE

Ok, now C[C@@H](NC(=O)Cc1cc(F)cc(F)c1)C(=O)N[C@@]1(C)N=C(c2ccccc2)c2ccccc2N(C)C1=O
FALSE

Ok, now Cc1ccc(C2=Nc3c(N)ncnc3NC(c3cccc(Nc4ccnc5cc(C(F)(F)F)ccc45)c3)C2)cc1 (centres undefined)
FALSE
